B1: NEK8 (parent)
chain: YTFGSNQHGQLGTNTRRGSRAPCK

- Variants of: B1
- Experiment: protein stability index of a GFP-peptide fusion (GPS, HEK-293T) (PSI 1-6); higher = more stable;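 also: lentivirally expressed fusions sorted by FACS into six bins by GFP to DsRed ratio, PSI derived from sequencing read proportions per bin multiplied by bin number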
- Measurement conditions: c terminus: a fixed tail appended
Readout: protein stability index
Just the number, please.

Please review the entries below; each comes with its answer.
{"Variant spec": "P22E", "protein stability index": 3.88}
{"Variant spec": "L11P", "protein stability index": 4.22}
{"Variant spec": "G12Q", "protein stability index": 3.93}
{"Variant spec": "Q10M", "protein stability index": 3.58}
{"Variant spec": "R17G", "protein stability index": 4.09}

**Q:** Look at this variant and give its reported protein stability index. L11N
**A:** 4.3

**Q:** Another: R16C
**A:** 3.36

**Q:** Another: T2M
**A:** 4.5

**Q:** Another: R20A
**A:** 4.07

**Q:** Another: N6Q
**A:** 4.21

Cited source: the supplement of paper PMC10567573
